All figures here come from patent US12692262B2.

Listed below: % of maximum agonist effect (relative to Orexin A) values for each entry.
Biological target: human OX2R (Homo sapiens)
Construct: expressed in transfected cells; host or cells: CHO (Chinese hamster ovary) cells grown under G418 selection
Sequence (O43614 1-444): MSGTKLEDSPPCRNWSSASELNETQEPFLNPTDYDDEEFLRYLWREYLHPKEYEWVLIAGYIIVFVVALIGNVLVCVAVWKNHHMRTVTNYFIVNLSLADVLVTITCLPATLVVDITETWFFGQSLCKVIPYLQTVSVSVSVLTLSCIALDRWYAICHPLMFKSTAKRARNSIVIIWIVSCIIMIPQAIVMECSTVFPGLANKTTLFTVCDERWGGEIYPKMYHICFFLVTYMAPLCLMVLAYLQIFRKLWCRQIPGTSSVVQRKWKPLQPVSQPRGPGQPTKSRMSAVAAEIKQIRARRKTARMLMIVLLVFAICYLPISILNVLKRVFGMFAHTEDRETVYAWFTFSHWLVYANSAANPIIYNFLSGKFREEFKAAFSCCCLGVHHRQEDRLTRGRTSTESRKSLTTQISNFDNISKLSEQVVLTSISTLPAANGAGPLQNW
Test: IPOne (IP-1 accumulation) assay in CHO cells expressing human OX2R
Format: cell-based
Conditions: percent effect vs mean max effect of a reference compound at 1 uM (100% activity vs Orexin A), human OX2R
Give the value in % but do not write % after it.

Consider the reported % of maximum agonist effect (relative to Orexin A) for these molecules:
CCN(C(=O)N[C@@H](CCC(F)(F)F)C(F)(F)F)C(c1cc(-c2cc(OC)c3nc(C#N)cn3c2)c(OC)cn1)C(F)(F)F (stereo partly drawn) [Example 10-7]; 102.7
C=CC[C@H](NC(=O)N(CC)C(c1cc(-c2cn3ccnc3c(OC)n2)c(OC)cn1)C(F)(F)F)C(F)(F)F (mixture of isomers) [Example 5-1]; 100.4
CCN(C(=O)N[C@@H](CCC(F)(F)F)C(F)(F)F)C(c1cc(-c2cc(OC)c3nccnc3c2)c(OC)cn1)C(F)(F)F (stereo partly drawn) [Example 10-13]; 101.7
CCN(C(=O)N[C@@H](CCC(F)(F)F)C(F)(F)F)C(C)c1ccnc(-c2cn3ccnc3c(OC)n2)c1 (stereo partly drawn) [Example 13-1]; 101.4
CCN(C(=O)NC1CC(CC(F)(F)F)C1)[C@@H](c1cc(-c2cn3ccnc3c(OC)n2)c(OC)cn1)C(F)(F)F (stereo partly drawn) [Example 2-30]; 99.0

Kindly consider the entry below.
Q: % of maximum agonist effect (relative to Orexin A) for CCN(C(=O)N[C@@H](CCC(F)(F)F)C(F)(F)F)[C@@H](c1cc(-c2cc(OC)c3nccn3c2)c(OC)cn1)C(F)(F)F [Example 9-1] ?
Result: 99.7
